// data source = PubChem BioAssay AID1963831

Test system: 889142-216-R-J1-PDC complex spheroid viability;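 note: spheroids exposed to compounds for seven days; 100% = DMSO vehicle control viability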
assay details: Anticancer human tumor 889142-216-R-J1-PDC patient-derived bladder carcinoma cell line growth inhibition [POLQ]
experimental conditions: second compound 1 µM; first compound 0.1 µM; stronger effect = lower value
experimental endpoint: viability, T/C (%)

• O=c1[nH]cc(F)c(=O)[nH]1 + Cc1cccc(N(C)C(=O)C2C(O)CCN2c2nc(C)cc(C(F)(F)F)c2C#N)c1 = 93.2
• CC1COCCN1c1cc(-c2ccnn2C)c2ccnc(-c3ccn[nH]3)c2n1 (stereo not given) + COC1C(OC(N)=O)C(O)C(Oc2ccc3c(O)c(NC(=O)c4ccc(O)c(CC=C(C)C)c4)c(=O)oc3c2C)OC1(C)C = 58.6
• CCc1cc2c(N3CCc4c(cc(Cn5ccnc5)cc4-c4cn(C)nc4C(F)(F)F)C3=O)cc(C)nc2c(OC)n1 + Cc1cccc(N(C)C(=O)C2C(O)CCN2c2nc(C)cc(C(F)(F)F)c2C#N)c1 = 106
• COc1cccc2c1C(=O)c1c(O)c3c(c(O)c1C2=O)CC(O)(C(=O)CO)CC3OC1CC(N)C(O)C(C)O1 (stereo not given) + Cc1cccc(N(C)C(=O)C2C(O)CCN2c2nc(C)cc(C(F)(F)F)c2C#N)c1 = 78
• COc1cccc(OCCCN)c1-c1cc(Nc2cnc(C#N)cn2)n[nH]1 + Nc1ccc(C#CCN(C(=O)Cc2ncc(C(F)(F)F)cc2C(F)(F)F)c2ccc(F)cc2)nn1 = 44.5
